biological target: porcine brain αβ-tubulin (Sus scrofa); assay: Tubulin polymerization (turbidimetry at 340 nm); format: biochemical
Sequence (P02554 whole entry): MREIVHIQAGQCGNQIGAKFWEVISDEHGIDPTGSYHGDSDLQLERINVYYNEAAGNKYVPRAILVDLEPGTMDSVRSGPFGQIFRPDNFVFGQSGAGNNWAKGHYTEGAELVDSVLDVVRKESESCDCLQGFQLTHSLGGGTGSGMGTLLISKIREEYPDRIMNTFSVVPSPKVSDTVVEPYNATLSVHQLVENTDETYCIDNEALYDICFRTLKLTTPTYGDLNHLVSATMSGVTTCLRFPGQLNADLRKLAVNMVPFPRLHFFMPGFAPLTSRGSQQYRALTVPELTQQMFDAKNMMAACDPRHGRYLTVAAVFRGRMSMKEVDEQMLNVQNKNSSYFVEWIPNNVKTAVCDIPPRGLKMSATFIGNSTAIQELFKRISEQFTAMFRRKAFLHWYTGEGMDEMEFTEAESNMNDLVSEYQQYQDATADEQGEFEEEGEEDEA
Sequence (P02550 whole entry partner): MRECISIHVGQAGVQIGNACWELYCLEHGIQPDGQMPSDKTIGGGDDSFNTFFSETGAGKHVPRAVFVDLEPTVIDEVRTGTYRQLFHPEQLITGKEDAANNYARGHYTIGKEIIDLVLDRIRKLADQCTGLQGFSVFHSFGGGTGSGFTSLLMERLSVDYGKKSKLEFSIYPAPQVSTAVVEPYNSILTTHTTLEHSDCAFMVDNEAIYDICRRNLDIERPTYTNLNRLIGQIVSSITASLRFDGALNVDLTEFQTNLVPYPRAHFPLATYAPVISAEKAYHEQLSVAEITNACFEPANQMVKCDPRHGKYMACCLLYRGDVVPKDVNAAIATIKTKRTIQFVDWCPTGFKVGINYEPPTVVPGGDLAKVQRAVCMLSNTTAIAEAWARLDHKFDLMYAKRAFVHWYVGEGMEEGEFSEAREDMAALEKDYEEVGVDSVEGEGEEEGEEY
One threshold, 7 µM, splits the recorded EC50 values: lower ones are True, equal or higher ones are False.

The examples below pair each entry with its known result.
{"compound": "C/C(=C\\c1csc(C)n1)[C@@H]1C[C@@H]2O[C@@H]2CCC[C@H](C)[C@H](O)[C@@H](C)C(=O)C(C)(C)[C@@H](O)CC(=O)O1 [C, Epothilone A, reference compound]", "labelValue": "True"}
{"compound": "Cc1nc2cc([C@@H]3CCN(C(=O)OCC(F)(F)F)CCC[C@H](C)[C@H](O)[C@@H](C)C(=O)C(C)(C)[C@@H](O)CC(=O)O3)ccc2n1C", "labelValue": "True"}
{"compound": "C/C(=C\\c1csc(C)n1)[C@@H]1CCN(C(=O)OC(C)(C)C)CCC[C@H](C)[C@H](O)[C@@H](C)C(=O)C(C)(C)[C@@H](O)CC(=O)O1 [B, reference compound]", "labelValue": "True"}

hey, is EC50 for Cc1nc2cc([C@@H]3CCN(C(=O)OC(C)(C)C)C/C=C/[C@H](C)[C@H](O)[C@@H](C)C(=O)C(C)(C)[C@@H](O)CC(=O)O3)ccc2n1C [A, reference compound] lower than 7 µM or not?
False
